target: UniProt:P30542; assay: Displacement of [3H]-DPCPX from human adenosine A1 receptor expressed in CHO cell membranes at 1 uM after 120 mins by scintillation counting method relative to control
Sequence (P30542 whole entry): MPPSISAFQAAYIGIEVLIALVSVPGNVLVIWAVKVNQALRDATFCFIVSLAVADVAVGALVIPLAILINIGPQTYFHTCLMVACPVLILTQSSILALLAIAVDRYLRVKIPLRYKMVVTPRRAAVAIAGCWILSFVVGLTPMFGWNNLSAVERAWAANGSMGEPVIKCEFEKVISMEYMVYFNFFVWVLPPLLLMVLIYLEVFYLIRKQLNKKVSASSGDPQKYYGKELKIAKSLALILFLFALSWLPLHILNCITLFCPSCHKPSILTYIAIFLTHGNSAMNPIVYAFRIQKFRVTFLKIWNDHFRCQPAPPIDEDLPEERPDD
MEASURED PARAMETER: inhibition (%)

| INPUT SMILES | SYSTEM | NUMERIC RESULT |
| --- | --- | --- |
| Cc1nc(N)c2nn(CCc3ccccc3)cc2n1 | UniProt:P30542 | 10 |
| Cn1cc2nc(CCCc3ccccc3)nc(N)c2n1 | UniProt:P30542 | 36 |
| Nc1nc(-c2ccco2)nc2cn(CCc3ccccc3)nc12 | UniProt:P30542 | 12 |
| Nc1nc(CCCc2ccccc2)nc2cn(-c3ccccc3F)nc12 | UniProt:P30542 | 25 |
| COc1ccccc1-n1cc2nc(-c3cccs3)nc(N)c2n1 | UniProt:P30542 | 24 |
| COc1ccccc1-n1cc2nc(-c3ccc(C)o3)nc(N)c2n1 | UniProt:P30542 | 1 |
| COc1ccccc1-n1cc2nc(-c3ccco3)nc(N)c2n1 | UniProt:P30542 | 31 |
| Cn1cc2nc(Cc3ccccc3)nc(N)c2n1 | UniProt:P30542 | 9 |
| Nc1nc(Cc2ccccc2)nc2cn(Cc3ccccc3)nc12 | UniProt:P30542 | 1 |
| Cc1nc(N)c2nn(Cc3ccccc3)cc2n1 | UniProt:P30542 | 1 |
| Nc1nc(-c2ccco2)nc2cn(Cc3ccccc3)nc12 | UniProt:P30542 | 32 |
| Cc1ccc(-c2nc(N)c3nn(-c4ccccc4O)cc3n2)o1 | UniProt:P30542 | 1 |

====

biological target: UniProt:P29274; test: Displacement of [3H]-ZM241385 from human adenosine A2A receptor expressed in CHO cell membranes at 1 uM after 60 mins by scintillation counting method relative to control
Sequence (P29274 whole entry): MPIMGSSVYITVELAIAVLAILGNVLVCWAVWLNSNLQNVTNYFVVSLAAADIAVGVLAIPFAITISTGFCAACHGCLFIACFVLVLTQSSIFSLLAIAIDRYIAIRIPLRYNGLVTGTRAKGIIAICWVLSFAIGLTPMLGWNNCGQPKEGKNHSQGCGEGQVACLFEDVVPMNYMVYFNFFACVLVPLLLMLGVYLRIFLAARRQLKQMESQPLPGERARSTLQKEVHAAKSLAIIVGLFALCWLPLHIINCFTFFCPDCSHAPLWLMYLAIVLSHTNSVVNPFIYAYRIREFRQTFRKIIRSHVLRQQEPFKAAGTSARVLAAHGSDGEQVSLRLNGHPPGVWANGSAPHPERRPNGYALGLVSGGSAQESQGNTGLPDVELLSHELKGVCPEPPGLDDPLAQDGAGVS
Reported inhibition values for the following compounds.
MEASURED PARAMETER: inhibition (%)

| INPUT SMILES | MEASURED PARAMETER | UNITS | NUMERIC RESULT |
| --- | --- | --- | --- |
| Cn1cc2nc(CCCc3ccccc3)nc(N)c2n1 | inhibition | % | 1 |
| Nc1nc(Cc2ccccc2)nc2cn(Cc3ccccc3)nc12 | inhibition | % | 1 |
| COc1ccccc1-n1cc2nc(-c3cccs3)nc(N)c2n1 | inhibition | % | 27 |
| COc1ccccc1-n1cc2nc(Cc3ccccc3)nc(N)c2n1 | inhibition | % | 34 |
| Cc1nc(N)c2nn(-c3ccccc3F)cc2n1 | inhibition | % | 23 |
| Cn1cc2nc(Cc3ccccc3)nc(N)c2n1 | inhibition | % | 1 |
| Cc1nc(N)c2nn(CCc3ccccc3)cc2n1 | inhibition | % | 12 |
| Cc1nc(N)c2nn(Cc3ccccc3)cc2n1 | inhibition | % | 1 |
| Nc1nc(-c2ccco2)nc2cn(CCc3ccccc3)nc12 | inhibition | % | 33 |
| Nc1nc(CCCc2ccccc2)nc2cn(-c3ccccc3F)nc12 | inhibition | % | 43 |
| Nc1nc(Cc2ccccc2)nc2cn(-c3ccccc3O)nc12 | inhibition | % | 21 |

====

species on record: Homo sapiens; test: Selectivity ratio of Ki for human adenosine A1 receptor to Ki for human adenosine A2A receptor

| INPUT SMILES | Ratio Ki |
| --- | --- |
| COc1cccc(Cn2cc3nc(-c4ccc(C)o4)nc(N)c3n2)c1 | 22 |
| COc1ccccc1Cn1cc2nc(-c3ccc(C)o3)nc(N)c2n1 | 3 |
| Cc1ccc(-c2nc(N)c3nn(Cc4ccccc4F)cc3n2)o1 | 3 |
| Cc1ccc(-c2nc(N)c3nn(Cc4ccccc4Cl)cc3n2)o1 | 3 |
| COc1ccccc1Cn1cc2nc(-c3ccco3)nc(N)c2n1 | 3 |
| Cc1ccc(-c2nc(N)c3nn(Cc4ccccc4O)cc3n2)o1 | 3 |
| Cc1ccc(-c2nc(N)c3nn(Cc4ccccc4)cc3n2)o1 | 15 |
| Cc1ccc(-c2nc(N)c3nn(Cc4cccc(O)c4)cc3n2)o1 | 3 |
| Nc1nc(-c2ccco2)nc2cn(Cc3ccccc3O)nc12 | 3 |
| Cc1ccc(-c2nc(N)c3nn(Cc4cccc(F)c4)cc3n2)o1 | 3 |

Cited source for all entries: ChEMBL document CHEMBL3797185
